Measured MIC accompanies every entry in the list below.
Tested on: Enterobacterales
experimental-details: MIC, broth microdilution, CDC/FDA Antibiotic Resistance Isolate Bank (Example 7, Tables 8, 11, 12)
Assay type: cell-based
condition-description: Enterobacter cloacae, Enterobacter cloacae complex, KUB No. 5661, AR Bank # 164; read-out: MIC
measured-parameter: MIC (µg/mL)

smiles-repr	u	numeric-readout
C[C@H]1COc2c(N3CCN(C)CC3)c(F)cc3c(=O)c(C(=O)O)cn1c23	µg/mL	0.12
CC(C)(O/N=C(\C(=O)N[C@@H]1C(=O)N2C(C(=O)[O-])=C(C[N+]3(CCNC(=O)c4ccc(O)c(O)c4Cl)CCCC3)CS[C@H]12)c1csc(N)n1)C(=O)O	µg/mL	0.5
CO/N=C(\C(=O)N[C@@H]1C(=O)N2C(C(=O)[O-])=C(C[n+]3ccn4ncccc43)CS[C@H]12)c1nsc(N)n1	µg/mL	1
NCC[C@H](O)C(=O)N[C@@H]1C[C@H](N)[C@@H](O[C@H]2O[C@H](CN)[C@@H](O)[C@H](O)[C@H]2O)[C@H](O)[C@H]1O[C@H]1O[C@H](CO)[C@@H](O)[C@H](N)[C@H]1O	µg/mL	1
CN(C)c1cc(NC(=O)CNC(C)(C)C)c(O)c2c1C[C@H]1C[C@H]3[C@H](N(C)C)C(O)=C(C(N)=O)C(=O)[C@@]3(O)C(O)=C1C2=O	µg/mL	0.5

---

System: Enterobacterales
experimental-details: MIC, broth microdilution, CDC/FDA Antibiotic Resistance Isolate Bank (Example 7, Tables 8, 11, 12)
Format: cell-based
condition-description: Klebsiella oxytoca, KUB No. 5644, AR Bank # 147; read-out: MIC

smiles-repr	study-target	relational-operator	MIC, µg/mL
NCC[C@H](O)C(=O)N[C@@H]1C[C@H](N)[C@@H](O[C@H]2O[C@H](CN)[C@@H](O)[C@H](O)[C@H]2O)[C@H](O)[C@H]1O[C@H]1O[C@H](CO)[C@@H](O)[C@H](N)[C@H]1O	Enterobacterales	=	0.5
C[C@H]1[C@H](NC(=O)/C(=N\OC(C)(C)C(=O)O)c2csc(N)n2)C(=O)N1S(=O)(=O)O	Enterobacterales	=	4
O=C(O)c1cn(C2CC2)c2cc(N3CCNCC3)c(F)cc2c1=O	Enterobacterales	≤	0.03

---

System: Enterobacterales
experimental-details: MIC, broth microdilution, CDC/FDA Antibiotic Resistance Isolate Bank (Example 7, Tables 8, 11, 12)
Format: cell-based
condition-description: Klebsiella pneumoniae, KUB No. 5657, AR Bank # 160; read-out: MIC
The entries below are paired with their reported MIC.

smiles-repr	MIC (µg/mL)
O=C(O)c1cn(C2CC2)c2cc(N3CCNCC3)c(F)cc2c1=O	0.06
NCC[C@H](O)C(=O)N[C@@H]1C[C@H](N)[C@@H](O[C@H]2O[C@H](CN)[C@@H](O)[C@H](O)[C@H]2O)[C@H](O)[C@H]1O[C@H]1O[C@H](CO)[C@@H](O)[C@H](N)[C@H]1O	0.5
C[C@H]1[C@H](NC(=O)/C(=N\OC(C)(C)C(=O)O)c2csc(N)n2)C(=O)N1S(=O)(=O)O	0.12
C[C@H]1COc2c(N3CCN(C)CC3)c(F)cc3c(=O)c(C(=O)O)cn1c23	0.12
CO/N=C(\C(=O)N[C@@H]1C(=O)N2C(C(=O)[O-])=C(C[n+]3ccn4ncccc43)CS[C@H]12)c1nsc(N)n1	2
CC(C)(O/N=C(\C(=O)N[C@@H]1C(=O)N2C(C(=O)[O-])=C(C[N+]3(CCNC(=O)c4ccc(O)c(O)c4Cl)CCCC3)CS[C@H]12)c1csc(N)n1)C(=O)O	0.25

Source listed as patent EP4635500A1.
